- target system: ABL1(T315I)-nonphosphorylated (Homo sapiens, UniProt P00519, T315I)
- Construct: purchased Eurofins DiscoverX KINOMEscan (scanTK)
- assay details: KINOMEscan ScanTK
- Type: binding
- stated conditions: read-out: %Control @1000nM
Friendly reminder: remaining binding at 1 µM below 80% is satisfied, at or above is not satisfied.

A selection of reference data follows.
molecule | target system | classification
COC(=O)c1cnc(S(C)(=O)=O)nc1N1CCCC(n2nc(-c3ccc(Oc4ccccc4)cc3)c3c(N)ncnc32)C1 (centres unmarked) | ABL1(T315I)-nonphosphorylated (Homo sapiens, UniProt P00519, T315I) | satisfied
CNC(=O)c1cnc(S(C)(=O)=O)nc1N1CCCC(n2nc(-c3ccc(Oc4ccccc4)cc3)c3c(N)ncnc32)C1 (centres unmarked) | ABL1(T315I)-nonphosphorylated (Homo sapiens, UniProt P00519, T315I) | satisfied
CCOC(=O)c1cnc(S(C)(=O)=O)nc1N1CCC[C@@H](n2nc(-c3ccc(Oc4ccccc4)cc3)c3c(N)ncnc32)C1 | ABL1(T315I)-nonphosphorylated (Homo sapiens, UniProt P00519, T315I) | not satisfied

In the following, a different molecule is considered.
stdin: Strictly below 80% in remaining binding at 1 µM? C=CC(=O)N1CCC[C@@H](n2nc(-c3ccc(Oc4ccccc4)cc3)c3c(N)ncnc32)C1 [Compound 1g, Ibrutinib, reference compound]
stdout: not satisfied
